# credit: patent US12564583B2

subject_of_test: thalidomide binding domain (TBD) of cereblon (Homo sapiens, UniProt Q96SW2)
Sequence (Q96SW2 318-426 limits assumed): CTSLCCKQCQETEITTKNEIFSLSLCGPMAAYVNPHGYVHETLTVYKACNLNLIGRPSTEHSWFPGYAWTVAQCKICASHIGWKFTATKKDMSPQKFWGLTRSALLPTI
protocol_details: Cereblon binding (DSF, FP/FI)
measurement_context: at 200 μM
Non-standard residues stand in square brackets, D forms with d. Residues, ends and D or L forms follow the SMILES beside them. pGlu = O=C1CC[C@@H](C(=O)O)N1
attribute_measured: Cereblon Binding (≥50% inhibition at 200 μM)

Cn1c(=O)ccn(CCCCc2ccccc2)c1=O: No
O=C1c2ccccc2C(=O)N1c1cc[nH]c(=O)c1: No
CCNc1cccc(S(=O)(=O)NC2CCC(=O)NC2=O)c1 (stereo not shown): Yes*
O=C1CCC(N2CCc3ccc([N+](=O)[O-])cc3C2)C(=O)N1 (stereo not shown): Yes*
Nc1ccccc1C(=O)NCCn1cc(F)c(=O)[nH]c1=O: Yes*

# query: Cereblon Binding (≥50% inhibition at 200 μM) of entry `CNc1ccccc1C(=O)NCCN1CCC(=O)NC1=O`
Yes*

# query: Cereblon Binding (≥50% inhibition at 200 μM) of entry `O=c1ccn(Cc2ccccc2)c(=O)[nH]1`
Yes*

# query: Cereblon Binding (≥50% inhibition at 200 μM) of entry CN1C(=O)CCC(N2Cc3c(N)cccc3C2=O)C1=O.Cl (stereo not shown)
No

# query: Cereblon Binding (≥50% inhibition at 200 μM) of entry O=C1CCC(NS(=O)(=O)c2ccc([N+](=O)[O-])cc2)C(=O)N1 (stereo not shown)
Yes*

# query: Cereblon Binding (≥50% inhibition at 200 μM) of entry O=C1CCC(N2CCc3ccc(Cl)cc3C2)C(=O)N1 (stereo not shown)
Yes*

# query: Cereblon Binding (≥50% inhibition at 200 μM) of entry `O=c1ccn(CCNS(=O)(=O)c2ccccc2)c(=O)[nH]1`
Yes*

# query: Cereblon Binding (≥50% inhibition at 200 μM) of entry `O=C1NC(=O)c2ccccc21`
No

# query: Cereblon Binding (≥50% inhibition at 200 μM) of entry CC(C)C[C@H](NC(=O)[C@@H]1CCC(=O)N1)C(N)=O ([pGlu]-Leu-NH2)
No

# query: Cereblon Binding (≥50% inhibition at 200 μM) of entry `NC(=O)[C@H](Cc1ccccc1)NC(=O)[C@@H]1CCC(=O)N1`
No
